Assay: Inhibition of I309-induced chemotaxis in L1.2 cells expressing CCR8
The entries below come with measured log10 IC50 values attached.
Plainly stated, the numbers are log10 of IC50 given in nM.

Some solved entries appear below for comparison.
CC(C)(C(=O)O)N1CCC(C(=O)NC2CCN(Cc3cccc(Oc4ccccc4Cl)c3)CC2)(c2ccccc2)C1 (configuration not stated) ... 0.00
COc1ccccc1Oc1cccc(CN2CCC(NC(=O)C3(c4ccccc4)CCNCC3)CC2)c1 ... 1.04
COc1ccccc1Oc1cccc(CN2CCC(NC(=O)Cc3ccccc3)CC2)c1 ... 1.74
CCN1CCC(C(=O)NC2CCN(Cc3cccc(Oc4ccccc4Cl)c3)CC2)(c2ccccc2)CC1 ... 1.63
CCN1CCC(C(=O)NC2CCN(Cc3cccc(Oc4ccccc4OC)c3)CC2)(c2ccccc2)CC1 ... 1.75
CC(C)(C(=O)O)N1CCC(C(=O)NC2CCN(Cc3cccc(Oc4ccccc4Cl)c3)CC2)(c2ccccc2)CC1 ... 0.60

(Q) Form field: reported log10 IC50 of O=C(NC1CCN(Cc2cccc(Oc3ccccc3Cl)c2)CC1)C1(c2ccccc2)CCNC1 (racemic)
(A) 1.34
